System: Androgen receptor (Homo sapiens) | Read-out: AC50; note: assay procedure not described here
Sequence (P10275 whole entry): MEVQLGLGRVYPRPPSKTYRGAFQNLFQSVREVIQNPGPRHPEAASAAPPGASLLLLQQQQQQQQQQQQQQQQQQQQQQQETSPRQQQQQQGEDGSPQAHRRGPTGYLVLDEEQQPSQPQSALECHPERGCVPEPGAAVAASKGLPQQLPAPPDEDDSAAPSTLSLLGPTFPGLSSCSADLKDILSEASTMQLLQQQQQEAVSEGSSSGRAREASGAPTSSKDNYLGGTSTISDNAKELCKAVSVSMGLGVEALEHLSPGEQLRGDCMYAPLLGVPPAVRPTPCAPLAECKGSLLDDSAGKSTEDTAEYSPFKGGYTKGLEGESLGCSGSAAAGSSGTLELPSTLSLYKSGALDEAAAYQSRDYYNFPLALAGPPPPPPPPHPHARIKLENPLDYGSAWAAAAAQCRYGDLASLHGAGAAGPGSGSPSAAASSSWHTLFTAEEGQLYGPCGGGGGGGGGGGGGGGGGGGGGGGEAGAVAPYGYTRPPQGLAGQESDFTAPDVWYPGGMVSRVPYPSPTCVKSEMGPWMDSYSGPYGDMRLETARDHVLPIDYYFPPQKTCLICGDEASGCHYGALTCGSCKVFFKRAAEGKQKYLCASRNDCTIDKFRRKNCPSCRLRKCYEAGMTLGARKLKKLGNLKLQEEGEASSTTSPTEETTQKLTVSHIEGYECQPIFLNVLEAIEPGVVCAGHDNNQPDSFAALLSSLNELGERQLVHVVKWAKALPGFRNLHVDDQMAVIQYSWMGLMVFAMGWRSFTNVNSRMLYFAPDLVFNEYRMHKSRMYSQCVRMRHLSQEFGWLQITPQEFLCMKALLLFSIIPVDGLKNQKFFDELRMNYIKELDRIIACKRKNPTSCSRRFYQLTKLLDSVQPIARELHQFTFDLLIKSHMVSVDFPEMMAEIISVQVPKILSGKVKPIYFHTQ
experimental.endpoint: AC50

>>> endpoint_value("C[C@@H]1C[C@H]2[C@@H]3C[C@H](F)C4=CC(=O)C=C[C@]4(C)[C@H]3[C@@H](O)C[C@]2(C)[C@@]1(O)C(=O)CO")
"3.48 µM"
>>> endpoint_value("NC(=O)[C@@H]1CC[C@@H]2CN1C(=O)N2OS(=O)(=O)O")
"> 30 µM"
>>> endpoint_value("C[N+](C)(C)CCOP(=O)(O)OP(=O)([O-])OC[C@H]1O[C@@H](n2ccc(N)nc2=O)[C@H](O)[C@@H]1O")
"> 30 µM"
>>> endpoint_value("Clc1ccc(C(Cn2ccnc2)OCc2csc3c(Cl)cccc23)c(Cl)c1 (stereo unspecified)")
"0.0201 µM"
>>> endpoint_value("Cc1ccc(C(=O)c2ccc(CC(=O)O)n2C)cc1")
"> 30 µM"
>>> endpoint_value("N#Cc1ccc(Oc2ccc3c(c2)COB3O)cc1")
"> 30 µM"
>>> endpoint_value("CN[C@@H]1[C@H](O[C@H]2[C@H](O[C@H]3[C@H](O)[C@@H](O)[C@H](NC(=N)N)[C@@H](O)[C@@H]3NC(=N)N)O[C@@H](C)[C@]2(O)CO)O[C@@H](CO)[C@H](O)[C@H]1O [DIHYDROSTREPTOMYCIN]")
"> 30 µM"
>>> endpoint_value("CN1CCCN(C(c2ccccc2)c2ccc(Cl)cc2)CC1 (stereo unspecified)")
"> 30 µM"
>>> endpoint_value("CC(=O)OC[C@H]1O[C@@H](n2ncc(=O)[nH]c2=O)[C@H](OC(C)=O)[C@@H]1OC(C)=O")
"> 30 µM"
>>> endpoint_value("O=C(O)Cc1ccccc1Nc1c(Cl)cccc1Cl")
"> 3 µM"
>>> endpoint_value("CC(OCCN1CCCCCC1)(c1ccccc1)c1ccc(Cl)cc1 (stereo unspecified)")
"> 30 µM"
>>> endpoint_value("Cc1ccsc1C(=CCCN1CCC[C@@H](C(=O)O)C1)c1sccc1C")
"> 30 µM"
>>> endpoint_value("CCCn1cnc2c1c(=O)n(CCCCC(C)=O)c(=O)n2C")
"> 30 µM"
>>> endpoint_value("Cc1ncc2c(c1O)COC2c1ccc(Cl)cc1 (stereo unspecified)")
"> 30 µM"
>>> endpoint_value("O=C(CCC/C=C\\C[C@@H]1[C@@H](CC[C@@H](O)CCc2ccccc2)[C@H](O)C[C@@H]1O)OCCCCO[N+](=O)[O-]")
"> 30 µM"
>>> endpoint_value("N=C(N)N/N=C/c1c(Cl)cccc1Cl")
"> 30 µM"

====

experimental.target: Bile salt export pump (Homo sapiens); note: assay procedure not described here
Sequence (O95342 whole entry): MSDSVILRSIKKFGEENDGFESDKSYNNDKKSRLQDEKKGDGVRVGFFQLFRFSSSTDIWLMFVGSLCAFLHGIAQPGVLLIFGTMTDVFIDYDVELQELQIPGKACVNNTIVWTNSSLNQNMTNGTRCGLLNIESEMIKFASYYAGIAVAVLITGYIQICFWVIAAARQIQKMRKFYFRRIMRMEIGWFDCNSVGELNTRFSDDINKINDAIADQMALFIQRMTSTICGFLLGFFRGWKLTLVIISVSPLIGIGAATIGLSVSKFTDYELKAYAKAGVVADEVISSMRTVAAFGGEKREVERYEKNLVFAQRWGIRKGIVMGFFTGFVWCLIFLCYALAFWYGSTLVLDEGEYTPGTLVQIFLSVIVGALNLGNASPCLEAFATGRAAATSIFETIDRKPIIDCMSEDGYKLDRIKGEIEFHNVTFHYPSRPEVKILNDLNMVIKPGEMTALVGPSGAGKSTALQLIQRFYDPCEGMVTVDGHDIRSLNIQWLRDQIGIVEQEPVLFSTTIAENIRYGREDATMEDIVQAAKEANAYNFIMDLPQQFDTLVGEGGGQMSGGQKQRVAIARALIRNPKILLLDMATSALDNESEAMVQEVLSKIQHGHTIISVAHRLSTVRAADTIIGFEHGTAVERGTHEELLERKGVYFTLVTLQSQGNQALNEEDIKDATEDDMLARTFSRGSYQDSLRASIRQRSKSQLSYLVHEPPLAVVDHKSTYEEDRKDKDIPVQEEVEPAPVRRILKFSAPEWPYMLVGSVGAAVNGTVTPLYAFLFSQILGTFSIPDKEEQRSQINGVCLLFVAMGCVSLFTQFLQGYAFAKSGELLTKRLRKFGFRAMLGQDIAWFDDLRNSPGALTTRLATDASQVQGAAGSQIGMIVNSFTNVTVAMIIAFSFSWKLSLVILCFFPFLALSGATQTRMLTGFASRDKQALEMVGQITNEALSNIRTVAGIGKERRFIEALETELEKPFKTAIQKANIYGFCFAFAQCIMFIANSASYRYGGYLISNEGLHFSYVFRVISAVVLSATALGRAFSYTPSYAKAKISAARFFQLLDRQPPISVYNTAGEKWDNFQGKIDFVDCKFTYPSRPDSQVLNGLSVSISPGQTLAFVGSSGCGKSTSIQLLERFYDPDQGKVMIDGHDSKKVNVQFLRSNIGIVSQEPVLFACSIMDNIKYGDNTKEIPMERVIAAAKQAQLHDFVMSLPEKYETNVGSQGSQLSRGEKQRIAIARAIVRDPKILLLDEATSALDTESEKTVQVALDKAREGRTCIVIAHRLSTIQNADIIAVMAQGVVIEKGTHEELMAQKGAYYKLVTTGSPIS
Assay type: functional
Listed below: AC50 values for each entry.
experimental.endpoint: AC50 (µM)

>>> endpoint_value("CCOc1nc2cccc(C(=O)O)c2n1Cc1ccc(-c2ccccc2-c2nnn[nH]2)cc1")
100
>>> endpoint_value("COc1cc(C(C)=O)ccc1OCCCN1CCC(c2noc3cc(F)ccc23)CC1")
40
>>> endpoint_value("Cc1ccccc1C(=O)Nc1ccc(C(=O)N2CCCC(O)c3cc(Cl)ccc32)c(C)c1 (centres undefined)")
7.87
>>> endpoint_value("Clc1ccc(Cn2c(CN3CCCC3)nc3ccccc32)cc1")
29

====

AC50 reference
experimental.target: Thromboxane A2 receptor (Homo sapiens); note: assay procedure not described here
Sequence (P21731 whole entry): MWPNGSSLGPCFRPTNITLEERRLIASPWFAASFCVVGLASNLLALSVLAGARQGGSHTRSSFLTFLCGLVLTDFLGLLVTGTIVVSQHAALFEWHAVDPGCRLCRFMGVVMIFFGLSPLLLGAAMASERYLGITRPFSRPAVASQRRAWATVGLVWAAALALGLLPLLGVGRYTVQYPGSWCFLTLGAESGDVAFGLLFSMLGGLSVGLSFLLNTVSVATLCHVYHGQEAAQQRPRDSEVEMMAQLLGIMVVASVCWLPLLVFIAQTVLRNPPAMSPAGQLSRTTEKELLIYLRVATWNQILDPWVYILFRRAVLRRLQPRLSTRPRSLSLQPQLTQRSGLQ
Format: functional, cell-based
experimental.endpoint: AC50

>>> endpoint_value("COc1ccc2c(C(=S)N(C)CC(=O)O)cccc2c1C(F)(F)F")
"> 30 µM"
>>> endpoint_value("COC(=O)C[C@](O)(CCCC(C)(C)O)C(=O)O[C@@H]1C(OC)=C[C@]23CCCN2CCc2cc4c(cc2[C@H]13)OCO4 [OMACETAXINE MEPESUCCINATE]")
"> 30 µM"
>>> endpoint_value("C[N+](C)(CCCCCC[N+](C)(C)C1c2ccccc2-c2ccccc21)C1c2ccccc2-c2ccccc21")
"> 30 µM"
>>> endpoint_value("Cc1cc(=O)[nH]c(=S)[nH]1")
"> 30 µM"
>>> endpoint_value("Cc1ccsc1C(=CCCN1CCC[C@@H](C(=O)O)C1)c1sccc1C")
"> 30 µM"
>>> endpoint_value("CC(=O)O[C@]1(C(C)=O)CC[C@H]2[C@@H]3C=C(Cl)C4=CC(=O)[C@@H]5C[C@@H]5[C@]4(C)[C@H]3CC[C@@]21C [CYPROTERONE ACETATE]")
"> 3 µM"
>>> endpoint_value("CC(C)C(=O)Oc1ccc(CO)cc1[C@H](CCN(C(C)C)C(C)C)c1ccccc1")
"> 30 µM"
>>> endpoint_value("NC(=O)[C@@H]1CC[C@@H]2CN1C(=O)N2OS(=O)(=O)O")
"> 30 µM"
>>> endpoint_value("N=C(N)N/N=C/c1c(Cl)cccc1Cl")
"22.2 µM"
>>> endpoint_value("CC(C)C[C@H](NC(=O)[C@@H](O)[C@H](N)Cc1ccccc1)C(=O)O")
"> 30 µM"
>>> endpoint_value("Cc1ncc2c(c1O)COC2c1ccc(Cl)cc1 (stereo unspecified)")
"> 30 µM"
